Below: a set of entries, each annotated with reported growth inhibition.
# Measurement Protocol: NCI Yeast Anticancer Drug Screen. Data for the mec2-1 strain (AID 157)
# Conditions: S. cerevisiae mec2-1 strain, at 50.0 µM (retest, dose inferred, filed as 5.0), active compounds read high
About 79,000 compounds went through this panel and 15% of them were active in at least one assay; those are over-represented in the sample as a whole.
Numeric only. Scale: %

> print(dat)
                 compound  reported.endpoint  quantitative.result
1  Nc1n[nH]c(=O)c2cccnc12  growth inhibition                  -12

Now consider the entry below.
INPUT: Find the measured growth inhibition of O=C(CSCc1c(F)cccc1Cl)Nc1ccc(F)c(Cl)c1 and report it.
OUTPUT: 38
